# assayComment: Cytotoxicity against mouse J774.1 cells after 24 hrs by Alamar blue assay
# Type: cell-based
Here the recorded CC50 at 24 h is given for each entry.
metricName: CC50 at 24 h (µM)

smilesRepr: CCCCn1cc(C(=O)NCc2ccccc2)c(=O)c2cc(C(F)(F)F)c(N3CCOCC3)cc21
unitAnnotation: µM
relationSymbol: =
valueMeasured: 78.6
//
smilesRepr: CCCCn1cc(C(=O)NCc2ccccc2)c(=O)c2ccc(N3CCOCC3)cc21
unitAnnotation: µM
relationSymbol: >
valueMeasured: 100
//
smilesRepr: CCCCn1cc(C(=O)NCc2ccc(F)cc2)c(=O)c2cc(F)c(N3CCOCC3)cc21
unitAnnotation: µM
relationSymbol: >
valueMeasured: 20
//
smilesRepr: O=C(NCc1ccccc1)c1cn(CCCO)c2cc(N3CCOCC3)c(F)cc2c1=O
unitAnnotation: µM
relationSymbol: =
valueMeasured: 43.1
//
smilesRepr: CCCCn1cc(C(=O)NCc2ccccc2)c(=O)c2cc(F)c(N3CCOCC3)c(F)c21
unitAnnotation: µM
relationSymbol: >
valueMeasured: 20
//
smilesRepr: CCCCn1cc(C(=O)NCc2ccccc2F)c(=O)c2cc(F)c(N3CCOCC3)cc21
unitAnnotation: µM
relationSymbol: =
valueMeasured: 37
//
smilesRepr: CCCCn1cc(C(=O)NCc2ccccc2)c(=O)c2c(N(C)C)cc(N3CCOCC3)cc21
unitAnnotation: µM
relationSymbol: =
valueMeasured: 44
//
smilesRepr: CCCCn1cc(C(=O)NCc2ccccc2)c(=O)c2c(F)c(F)c(N3CCOCC3)cc21
unitAnnotation: µM
relationSymbol: >
valueMeasured: 25
//
smilesRepr: O=C(NCc1ccccc1)c1cn(CCCF)c2cc(N3CCOCC3)c(F)cc2c1=O
unitAnnotation: µM
relationSymbol: =
valueMeasured: 42.4

* * *

Here the recorded CC50 at 24 h is given for each entry.
# assayComment: Cytotoxicity against mouse J774.1 cells after 24 hrs by Alamar blue assay
# Assay type: cell-based

smilesRepr: CCCCn1cc(C(=O)NCc2ccccc2)c(=O)c2ccc(N3CCOCC3)c(F)c21
relationSymbol: >
CC50 at 24 h [µM]: 25
--
smilesRepr: CCCCn1cc(C(=O)NCc2ccccc2)c(=O)c2c(F)cc(N3CCOCC3)cc21
relationSymbol: >
CC50 at 24 h [µM]: 100
--
smilesRepr: CCCCn1cc(C(=O)NCc2ccccc2)c(=O)c2cc(OC)c(N3CCOCC3)cc21
relationSymbol: =
CC50 at 24 h [µM]: 42
--
smilesRepr: O=C(NCc1ccccc1)c1cn(CCCOCc2ccccc2)c2cc(N3CCOCC3)c(F)cc2c1=O
relationSymbol: >
CC50 at 24 h [µM]: 100
--
smilesRepr: CCCCn1cc(C(=O)NCc2ccc(F)cc2)c(=O)c2c(F)cc(N3CCOCC3)cc21
relationSymbol: >
CC50 at 24 h [µM]: 25
--
smilesRepr: CCCCn1cc(C(=O)NCc2ccc(F)cc2F)c(=O)c2cc(F)c(N3CCOCC3)cc21
relationSymbol: =
CC50 at 24 h [µM]: 59.6
--
smilesRepr: CCCCn1cc(C(=O)NCc2ccccc2)c(=O)c2c(OC)cc(N3CCOCC3)cc21
relationSymbol: =
CC50 at 24 h [µM]: 51.8

* * *

# assayComment: Selectivity index, ratio of CC50 for mouse J774.1 cells to IC50 for trypomastigote forms of Trypanosoma brucei brucei TC 221 assessed as parasite growth inhibition after 48 hrs
# Format: toxicity
# conditionContext: read-out: Ratio CC50/IC50

smilesRepr: O=C(NCc1ccccc1)c1cn(CCCO)c2cc(N3CCOCC3)c(F)cc2c1=O
relationSymbol: =
selectivity ratio at 48 h: 160
--
smilesRepr: CCCCn1cc(C(=O)NCc2ccccc2)c(=O)c2c(F)c(F)c(N3CCOCC3)cc21
relationSymbol: >
selectivity ratio at 48 h: 625
--
smilesRepr: CCCCn1cc(C(=O)NCc2ccccc2)c(=O)c2ccc(N3CCOCC3)cc21
relationSymbol: >
selectivity ratio at 48 h: 435
--
smilesRepr: CCCCn1cc(C(=O)NCc2ccccc2)c(=O)c2cc(C(F)(F)F)c(N3CCOCC3)cc21
relationSymbol: =
selectivity ratio at 48 h: 146
--
smilesRepr: CCCCn1cc(C(=O)NCc2ccccc2F)c(=O)c2cc(F)c(N3CCOCC3)cc21
relationSymbol: =
selectivity ratio at 48 h: 90
--
smilesRepr: CCCCn1cc(C(=O)NCc2ccccc2)c(=O)c2cc(OC)c(N3CCOCC3)cc21
relationSymbol: =
selectivity ratio at 48 h: 135
